Recorded measurements of T/C, one per entry
Test system: L1210 leukemia ip in BDF1 mice, survival T/C
Experiment: NCI In Vivo Anticancer Drug Screen. Data for tumor model L1210 Leukemia (intraperitoneal) in B6D2F1 (BDF1) mice
Settings: endpoint: mean survival time; dose: 100.0 mg/kg/injection; schedule: Q04DX003 (ip); vehicle: gum acacia; higher = longer survival
Inconclusive results and toxic doses are left out.

{"structure notation": "CC(C)N(C(=O)Nc1cccc2ccccc12)c1ccccc1", "study system": "L1210 leukemia ip in BDF1 mice, survival T/C", "assay readout": "T/C", "recorded value": "110 % of control"}
{"structure notation": "Cc1c(/C=C(\\C#N)c2ccc([N+](=O)[O-])cc2)c(=O)n(-c2ccccc2)n1C", "study system": "L1210 leukemia ip in BDF1 mice, survival T/C", "assay readout": "T/C", "recorded value": "92 % of control"}
{"structure notation": "CC(C)(C)c1ccc2oc(-c3ccc(-c4nc5cc(C(C)(C)C)ccc5o4)s3)nc2c1", "study system": "L1210 leukemia ip in BDF1 mice, survival T/C", "assay readout": "T/C", "recorded value": "92 % of control"}
{"structure notation": "CC/C=N/Nc1ccnc(SCc2ccccc2)n1", "study system": "L1210 leukemia ip in BDF1 mice, survival T/C", "assay readout": "T/C", "recorded value": "103 % of control"}
{"structure notation": "C(=N\\N(CCCCN(/N=C/c1ccccc1)c1ccccc1)c1ccccc1)/c1ccccc1", "study system": "L1210 leukemia ip in BDF1 mice, survival T/C", "assay readout": "T/C", "recorded value": "94 % of control"}

Now consider the entry below.
## Input Item Oc1ccccc1C=NCCCN=Cc1ccccc1O has what recorded T/C?
## Output 98 % of control
